Assay: inhibitors of TNFa-induced NFkB p65 translocation, primary screen, imaging, HUVEC, MLSMR starter and 10KST1 sets (AID 438);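 further: compound added about 3h40 before a 20 min TNFalpha stimulation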
Conditions: HUVEC TNFa-induced p65 nuclear translocation; measured here: nuclei count (cytotoxicity indicator), at 2.08 µM
Reported cell count is given for each of the following compounds.
Answer using only a numeral; do not append any unit.

molecularString | cell count
CCOC(=O)c1[nH]nc(-c2c(O)cc(C)cc2O)c1-c1csc(C)n1 | 495
CCOc1ccc2[nH]c(=O)c(CN(Cc3ccccc3)C(=O)N3CCCC3)cc2c1 | 497
Cc1ccc2nc(CSc3nnc(-c4ccco4)n3-c3ccccc3)cc(=O)n2c1 | 509

Q: Requested field: cell count. Item: "CN(Cc1nc(-c2ccncc2)no1)S(=O)(=O)c1ccc(Br)cc1"
Ans: 492

---

Molecular target: Muscarinic acetylcholine receptor M4 (Homo sapiens) (UniProt P08173)
Sequence (P08173 whole entry, looked up): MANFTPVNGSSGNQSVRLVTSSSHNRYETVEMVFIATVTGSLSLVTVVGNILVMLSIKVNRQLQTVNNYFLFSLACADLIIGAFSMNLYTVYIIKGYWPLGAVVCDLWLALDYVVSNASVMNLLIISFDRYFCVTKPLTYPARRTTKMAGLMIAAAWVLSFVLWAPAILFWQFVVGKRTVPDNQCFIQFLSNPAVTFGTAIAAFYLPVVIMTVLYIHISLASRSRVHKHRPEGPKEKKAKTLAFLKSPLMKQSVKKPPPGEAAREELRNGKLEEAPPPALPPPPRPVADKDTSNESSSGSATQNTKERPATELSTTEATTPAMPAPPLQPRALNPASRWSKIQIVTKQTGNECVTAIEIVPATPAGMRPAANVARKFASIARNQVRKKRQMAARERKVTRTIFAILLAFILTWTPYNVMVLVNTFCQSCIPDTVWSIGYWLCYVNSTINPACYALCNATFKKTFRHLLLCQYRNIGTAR
Assay: M4-linked GIRK flux change, two-sided – cell-based, HEK293 M4/GIRK, thallium flux, BTC-AM, M4 allosteric agonist project, primary screen (AID 625);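 further: thallium influx through GIRK channels coupled to M4 in HEK293 cells with BTC-AM dye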
Settings: at 10 µM, actives lie on both sides
experimentalReadout: fluorescence slope
Answer using only a numeral; do not append any unit.

Before answering, review these 2 worked examples.
compound | fluorescence slope
Cc1cc2oc(=O)cc(CN3CCN(Cc4ccc5c(c4)OCO5)CC3)c2cc1C | 0.00603
N#CCc1nc(CSc2nc3ccccc3s2)cs1 | 0.0089

Q: Requested field: fluorescence slope. Item: "CCN(CC(=O)NC(=O)NCc1ccco1)Cc1nc2ccccc2c(=O)[nH]1"
Ans: 0.0066

Q: Then this compound: "Cc1cc(NC(=O)CSc2ccc3nnc(-c4cccc(F)c4)n3n2)no1"
Ans: 0.00544

Q: Then this compound: "COc1cccc(C(=O)Nc2cnc(NC(=O)c3ccco3)cc2C)c1"
Ans: 0.00623

Q: Then this compound: "S=c1[nH]nc(COc2ccccc2)n1C1CCCCC1"
Ans: 0.0103

Q: Then this compound: "COc1ccc(Cc2nnc3n2N=C(c2cc4ccccc4o2)CS3)cc1OC"
Ans: 0.00468

---

Test: inhibitors of TNFa-induced NFkB p65 translocation, primary screen, imaging, HUVEC, MLSMR starter and 10KST1 sets (AID 438);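 further: compound added about 3h40 before a 20 min TNFalpha stimulation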
Conditions: HUVEC TNFa-induced p65 nuclear translocation; measured here: nuclei count (cytotoxicity indicator), at 2.08 µM
Reported cell count is given for each of the following compounds.
Answer using only a numeral; do not append any unit.

compound | cell count
O=C(NCc1ccco1)C1CC(=O)N(c2ccc(F)cc2)C1 (stereo not drawn) | 375
COc1ccc(CC(NC(C)=O)C(=O)NC2CCN(C(=O)Nc3ccc(C#N)cc3)CC2)cc1OC (stereo not drawn) | 312
CCc1nnc(NC(=O)C2CCN(c3nccc(C)n3)CC2)s1 | 533
CC(NC(=O)c1ccc(F)cc1)C(c1cccs1)N1CCN(C)CC1 (stereo not drawn) | 466

Q: Requested field: cell count. Item: "CCOC(=O)CSc1nnc(CNC(=O)c2ccc(OC)c(OC)c2)n1C"
Ans: 375

Q: Then this compound: "CCn1cc(C(=O)N2CCCC2)c(=O)c2cc(S(=O)(=O)N3CCOCC3)ccc21"
Ans: 542

Q: Then this compound: "CCNc1oc(COc2cccc(C)c2)nc1C#N"
Ans: 791

Q: Then this compound: "CN1CCN(C(=O)c2cnn3c(C(F)F)cc(C4CC4)nc23)CC1"
Ans: 277

Q: Then this compound: "Cc1nn(-c2ccccc2)c(C)c1C(=O)OCC(=O)c1c(N)n(CC(C)C)c(=O)n(C)c1=O"
Ans: 486

Q: Then this compound: "COC(=O)Cc1c(C)nc2nc(-c3ccco3)[nH]n2c1=O"
Ans: 409

Q: Then this compound: "CCc1ccc(NC(=O)c2cc(-c3ccco3)on2)cc1"
Ans: 382

Q: Then this compound: "Cc1cnc(C(=O)NCCc2ccc(S(=O)(=O)NC(=O)NC3CCCCC3)cc2)cn1"
Ans: 609

Q: Then this compound: CCn1cc(C2=NOC(C(=O)Nc3cc(C)nn3-c3ccccc3)C2)c(C)n1 (stereo not drawn)
Ans: 542

Q: Then this compound: "CCOC(=O)CNC(=O)Cn1cnc2c(nnn2-c2cccc(Cl)c2)c1=O"
Ans: 629

Q: Then this compound: "Cc1cc(=O)n2[nH]c(COc3ccccc3)nc2n1"
Ans: 203

Q: Then this compound: "Cc1ccc(S(=O)(=O)N(CC(=O)N2CCC(C(N)=O)CC2)c2cccc(C(F)(F)F)c2)cc1"
Ans: 327

Q: Then this compound: "Cc1nc2nc(SCC(=O)NCc3ccco3)nn2c(C)c1Cc1ccccc1"
Ans: 457

Q: Then this compound: CC(C)=CC/C=C1\CCC(C(=O)O)C(C(=O)O)C1 (stereo not drawn)
Ans: 661

---

Assay: blockers of RIG-like receptor reporter activation – cell-based, Sendai virus stimulus, luciferase, 10K MLSCN set, TLR/RLR signaling modifier project, primary screen (AID 602276);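 further: firefly luciferase from ISG56 promoter only with Renilla not read in this screen; 0% = Sendai virus plus DMSO and 100% = medium plus DMSO without virus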
Conditions: HEK293 RL24 IRF3 luciferase reporter, at 10 µM, stronger effect = higher value
Class TRUE: inhibition at least 10%. Class FALSE: inhibition below 10%.

The examples below pair each entry with its known result.
compound | categoryLabel
Oc1c(I)cc(Cl)c2cccnc12 | FALSE
O=C(COc1ccccc1Cl)OCC(=O)N1CCN(S(=O)(=O)c2ccccc2)CC1 | TRUE
COc1ccc(-c2nc(N3CCCC3)[nH]c(=O)c2C#N)cc1 | TRUE
CCN(CC)CCNC(=O)C1CCN(S(=O)(=O)N2CCCCC2)CC1 | TRUE
Cc1cccc(C(=O)N2CCN(C(=O)c3cccc(C)c3)C(C)C2)c1 (stereo not drawn) | FALSE

Q: Decide: inhibition of "CCCN(CCC)S(=O)(=O)c1ccc(C(=O)Nc2nnc(-c3cccc(OC)c3)o2)cc1" >= 10%?
Ans: TRUE

Q: Then this compound: "Cc1cccc2cc(C#N)c(NCCNC(=O)NC3CCCCC3)nc12"
Ans: FALSE

Q: Then this compound: "O=C(Cc1c(O)c2ccccc2[nH]c1=O)NCc1ccc(F)cc1"
Ans: TRUE

Q: Then this compound: "CCOC(=O)N1CCN(C(=O)CN(C)S(=O)(=O)c2ccc(OC)c(OC)c2)CC1"
Ans: TRUE

Q: Then this compound: "CCOC(=O)Nc1sc(=S)n(C)c1C"
Ans: TRUE

Q: Then this compound: "O=C(CP(=O)(CO)CO)c1ccc(Cl)cc1"
Ans: FALSE

Q: Then this compound: "C=CCNC(=O)CNS(=O)(=O)c1ccc(F)cc1"
Ans: TRUE

Q: Then this compound: "CCc1c(C)nc(N2CCN(Cc3ccccc3)CC2)[nH]c1=O"
Ans: TRUE

Q: Then this compound: "Cc1ccc2c(COn3nnc4ccc(S(=O)(=O)N(C)C)cc43)cc(=O)oc2c1C"
Ans: FALSE

Q: Then this compound: Cc1ccccc1-c1nc2ccccc2c(=O)n1C1CCS(=O)(=O)C1 (stereo not drawn)
Ans: TRUE

Q: Then this compound: "Nc1nonc1-c1noc(CCCCCN2C(=O)c3ccccc3C2=O)n1"
Ans: FALSE

Q: Then this compound: "CCCc1cc(=O)n2[nH]cnc2n1"
Ans: TRUE

Q: Then this compound: "COc1ccc(CNC(=O)Cn2nc(C(F)(F)F)c3c2CCC3)cc1"
Ans: FALSE

Q: Then this compound: "CCOC(=O)CSc1cn2c(n1)CCC2"
Ans: FALSE

Q: Then this compound: "CN(CC(=O)N1CCN(C2CCCCC2)CC1)S(=O)(=O)c1cccc2nsnc12"
Ans: TRUE

Q: Then this compound: C=CCOc1cccc(C2/C(=C(\O)c3ccc(F)cc3)C(=O)C(=O)N2CCN(C)C)c1 (stereo not drawn)
Ans: FALSE

Q: Then this compound: "COc1ccc(-c2cc3nc(C)c(CCC(=O)NCc4ccco4)c(C)n3n2)c(OC)c1"
Ans: TRUE

Q: Then this compound: "O=C(NCCc1cccc(Cl)c1)c1cccnc1"
Ans: FALSE

Q: Then this compound: CCCC(C(=O)NCc1ccco1)N(C(=O)CNS(=O)(=O)c1ccc(Cl)cc1)C1CCCC1 (stereo not drawn)
Ans: TRUE

---

Assay: inhibitors of TNFa-induced NFkB p65 translocation, primary screen, imaging, HUVEC, MLSMR starter and 10KST1 sets (AID 438);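 further: compound added about 3h40 before a 20 min TNFalpha stimulation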;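 on inhibition: signal is the nuclear over cytoplasmic p65 intensity ratio per well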
Details: HUVEC TNFa-induced p65 nuclear translocation; at 2 µM, stronger effect = higher value, 0% TNFa-plus-vehicle, 100% no-TNFa wells
experimentalReadout: inhibition (%)
Response body: numeric value in %, unit text excluded.

Before answering, review these 2 worked examples.
molecularString | val
O=C(Cn1cnc2c(nnn2-c2ccc(F)cc2)c1=O)NCc1ccco1 | 9.2
CN(c1cccc(NS(=O)(=O)c2cccs2)c1)S(C)(=O)=O | 2.4

Q: Requested field: inhibition. Item: "N#Cc1c(N)n(CCNC(=O)c2cccs2)c2nc3ccccc3nc12"
Ans: 10.7

Q: Then this compound: "CCCn1c2ccccc2c2nnc(SCC(=O)OCC)nc21"
Ans: -1.5
